Assay: Plasma concentrations and pharmacokinetic parameters after topical ocular, subcutaneous and intravitreal administration
Format: in vivo, New Zealand White rabbits
Conditions: New Zealand White, rabbit, plasma, subcutaneous, 5 mg/kg/dose, subcutaneous 5 mg/kg/dose, solution; 0.50 hr; read-out: plasma Average
Method: To measure the concentration of Compound 1 in plasma and ocular tissues following topical ocular, subcutaneous, and intravitreal administration, New Zealand White rabbits were administered Compound 1, and plasma and ocular samples were collected at pre-determined time points. […] Each blood sample was collected on Day 3 post dose at pre-determined time points from the rabbits via an ear vessel and placed into chilled polypropylene tubes containing sodium heparin as an anticoagulant. […]
Structures can show the parent of a compound that is named as a salt.
Parameter Measured: concentration at 0.5 hr (ng/mL)
Answers are plain numbers, in ng/mL.

Request: # get_value(readout='concentration at 0.5 hr', item= COC(=O)N[C@@H](Cc1ccccc1)C(=O)N[C@@H](Cc1ccc(NS(=O)(=O)O)cc1)c1csc(-c2cccs2)n1 [Compound 1 sodium salt] )
Response: 1100
